assay: PSAC antagonists in infected red cells, primary screen, cell-based, P. falciparum Indochina, OD700, 1 h (AID 1154); details: P. falciparum Indochina infected RBC osmotic lysis, called active from +8 up or from −8 down
The source made the active and inactive calls.
Outcome (select one): active, inactive

The examples below pair each entry with its known result.
>>> group("CCOC(=O)C[C@H]1[C@H](OC(=O)c2ccccc2-c2ccccc2)[C@@H](NC(=O)c2ccc3ccccc3c2)c2cc(OCCCO)ccc2N1C(=O)c1ccc2ccccc2n1")
"inactive"
>>> group("O=c1oc(-c2ccccc2)nc2cc(Br)ccc12")
"inactive"

Please examine the following record next.
Data request: # lookup: test call for CC(C)N1CC=CC23O[C@@H]4C=CCOC(=O)[C@@H]4[C@H]2C(=O)N(CCO)[C@@H]3C1=O (some centres not stated)
Data returned: inactive

====

test system: Chordin-like protein 2 (CHRDL2); test: CHRDL2 small-molecule binders, primary screen, biochemical, small-molecule microarray, 635 nm fluorescence (AID 1126); conditions: small-molecule microarray binding, fluorescence 635 nm; higher = more signal;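 note: printed compound slides probed with Chrdl2 protein at 4 µg/mL for 1 h at 4 C; score merges 667 nm emission intensity with signal to noise over three replicate slides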
Is composite z-score at least -0.5? Then Criterion met. If not, Criterion not met.

The examples below pair each entry with its known result.
>>> group("COC(=O)[C@@]1(Cc2ccc(OC)cc2)[C@H]2c3cc(C(=O)N4CCCC4)n(Cc4ccccn4)c3C[C@H]2CN1C(=O)c1ccccc1")
"Criterion not met"
>>> group("CC(=CC1CCCCC1)[C@@H](NC(=O)c1ccc(C(F)(F)F)cc1)c1ccc(-c2ccccc2)cc1")
"Criterion met"
>>> group("O=C1OCC=C[C@H]2OC34C=CCN(c5ccc6ccccc6c5)C(=O)[C@H]3N(CCCO)C(=O)[C@@H]4[C@@H]12 (some centres undefined)")
"Criterion not met"
>>> group("[N-]=[N+]=Nc1ccccc1[C@H]1OC(c2ccc(OCCCO)cc2)=N[C@@]1(CCS(=O)(=O)c1ccccc1)C(=O)O")
"Criterion met"
>>> group("CC(C)=CCCC(C)=CC(O)C1C=CC2C(=O)N(c3ccccc3)C(=O)C2N1Nc1ccccc1 (centres undefined)")
"Criterion met"
>>> group("NCCCCCNC(=O)[C@H]1C[C@H]2C(=O)NCC(=O)N2[C@H]1c1cccc(OCCO)c1")
"Criterion met"

Data request: Could you tell me if the measured composite z-score of "CC1=C2[C@@H](CCc3ccccc3)OB(O)C[C@@H]2n2c(=O)n(-c3ccccc3)c(=O)n2C1" reaches -0.5 or more?
Data returned: Criterion met

Data request: Could you tell me if the measured composite z-score of CC(C)(C)N1CC=CC23O[C@@H]4/C=C\CCCOC(=O)C4[C@H]2C(=O)N(CCO)[C@@H]3C1=O (some centres undefined) reaches -0.5 or more?
Data returned: Criterion met

Data request: Could you tell me if the measured composite z-score of CC(C)N1CC=CC23O[C@@H]4C=CCOC(=O)[C@@H]4[C@H]2C(=O)N(CCO)[C@@H]3C1=O (some centres undefined) reaches -0.5 or more?
Data returned: Criterion not met

Data request: Could you tell me if the measured composite z-score of "O=C1C=CC(=O)[C@@H]2CC(COc3ccccc3)=C3[C@@H](CCc4ccccc4)OB(O)C[C@@H]3[C@H]12" reaches -0.5 or more?
Data returned: Criterion met

Data request: Could you tell me if the measured composite z-score of "CCOC(=O)C[C@H]1[C@H](OC(=O)c2ccccc2-c2ccccc2)[C@@H](NC(=O)Cc2ccc(OC)cc2)c2cc(OCCCO)ccc2N1C(=O)c1ccccc1" reaches -0.5 or more?
Data returned: Criterion met

Data request: Could you tell me if the measured composite z-score of "COCCOC(=O)N1C(=O)[C@@]2(c3cc(C#CCNC(N)=O)ccc31)[C@H](C(=O)N1CCc3cc(OC)c(OC)cc3C1)[C@H]1C(=O)O[C@H](c3ccccc3)[C@H](c3ccccc3)N1[C@@H]2c1ccc(OCCO)cc1" reaches -0.5 or more?
Data returned: Criterion met

Data request: Could you tell me if the measured composite z-score of COC(=O)c1ccc(C23CC2(C(NP(=O)(c2ccccc2)c2ccccc2)c2ccccc2)C3)cc1 (centres undefined) reaches -0.5 or more?
Data returned: Criterion not met
